# target_or_test_system: T1, human monocarboxylate transporter 1 (MCT1) (human, UniProt P53985 1-500)
# T1 sequence: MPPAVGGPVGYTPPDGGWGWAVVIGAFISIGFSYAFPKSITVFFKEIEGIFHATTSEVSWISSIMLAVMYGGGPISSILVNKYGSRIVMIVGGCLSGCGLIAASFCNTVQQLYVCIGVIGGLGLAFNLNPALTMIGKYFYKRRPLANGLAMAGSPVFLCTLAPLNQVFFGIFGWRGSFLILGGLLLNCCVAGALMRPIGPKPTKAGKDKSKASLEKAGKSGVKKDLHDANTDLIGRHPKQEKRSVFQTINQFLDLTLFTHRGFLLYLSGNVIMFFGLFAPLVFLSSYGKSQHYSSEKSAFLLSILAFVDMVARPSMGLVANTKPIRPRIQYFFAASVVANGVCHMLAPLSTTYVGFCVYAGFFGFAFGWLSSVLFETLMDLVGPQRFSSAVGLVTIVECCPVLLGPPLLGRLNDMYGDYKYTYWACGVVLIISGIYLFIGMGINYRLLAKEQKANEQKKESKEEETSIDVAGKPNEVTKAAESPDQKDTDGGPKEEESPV
# protocol_description: cell-based or functional assay
measurement_kind: IC50 of inhibition of CD4 T cell proliferation (nM)
Give just the number in nM; leave the unit off.

// worked examples, IC50 of inhibition of CD4 T cell proliferation included
* anti-human MCT1 antibody Ab1 (antibody, human IgG1, kappa, V domains shown, human IgG1 effector null (IgG1EN) backbone; also called humanized Framework antibody Ab1) VH: QVQLVQSGAEVKKPGASVKVSCTVSGFSLTNYHLQWVRQAPGQGLEWMGFIRSSGNTEYNSEFKSRVTMTRDTSTSTVYMELSSLRSEDTAVYYCARNSWYHGTYYSPGYYVMDAWGQGTLVTVSS VL: EIVLTQSPGTLSLSPGERATLSCKGSQNINNYLAWYQQKPGQAPRLLIYNRHNLQTGIPDRFSGSGSGTDFTLTISRLEPEDFAVYYCYQYSDGYTFGGGTKVEIKR | 59
* anti-human MCT1 antibody Ab20 (antibody, human IgG1, kappa, V domains shown, IgG1EN backbone) VH: QVQLVQSGAEVKKPGASVKVSCTVSGRSLTNYHLQWVRQAPGQGLEWMGFIRSSGNTEYNSEFKSRVTMTRDTSTSTVYMELSSLRSEDTAVYYCARNLWYHGTYYSPGYYVMDAWGQGTLVTVSS VL: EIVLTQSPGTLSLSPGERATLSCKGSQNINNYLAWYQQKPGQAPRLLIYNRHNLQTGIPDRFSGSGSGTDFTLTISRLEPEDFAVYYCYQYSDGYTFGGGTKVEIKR | 13
* anti-human MCT1 antibody Ab16 (antibody, human IgG1, kappa, V domains shown, IgG1EN backbone) VH: QVQLVQSGAEVKKPGASVKVSCTRSGRSLTNYHLQWVRQAPGQGLEWMGFIRSSGNTEYNSEFKSRVTMTRDTSTSTVYMELSSLRSEDTAVYYCARNRWYHGTYYSPGYYVMDAWGQGTLVTVSS VL: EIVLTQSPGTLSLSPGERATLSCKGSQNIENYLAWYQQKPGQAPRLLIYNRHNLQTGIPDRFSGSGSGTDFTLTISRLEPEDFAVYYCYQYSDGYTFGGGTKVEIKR | 5
* anti-human MCT1 antibody Ab9 (antibody, human IgG1, kappa, V domains shown, IgG1EN backbone) VH: QVQLVQSGAEVKKPGASVKVSCTVSGRSLTNYHIQWVRQAPGQGLEWMGFIRSSGNTEYNSEFKSRVTMTRDTSTSTVYMELSSLRSEDTAVYYCARNRWYHGTYYSPGYYVMDAWGQGTLVTVSS VL: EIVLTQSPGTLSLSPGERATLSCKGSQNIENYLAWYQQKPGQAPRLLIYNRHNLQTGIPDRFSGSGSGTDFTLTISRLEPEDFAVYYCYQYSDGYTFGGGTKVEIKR | 4

[Q] May I ask what IC50 of inhibition of CD4 T cell proliferation has been recorded for anti-human MCT1 antibody Ab21 (antibody, human IgG1, kappa, V domains shown, IgG1EN backbone) VH: QVQLVQSGAEVKKPGASVKVSCTVSGRSLTNYHLQWVRQAPGQGLEWMGFIRSSGNTEYNSEFKSRVTMTRDTSTSTVYMELSSLRSEDTAVYYCARNRWYHGTYYSPGYYVMDPWGQGTLVTVSS VL: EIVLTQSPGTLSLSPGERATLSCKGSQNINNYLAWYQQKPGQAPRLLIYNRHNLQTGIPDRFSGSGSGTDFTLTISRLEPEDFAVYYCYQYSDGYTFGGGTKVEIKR ?
[A] 6
